Molecular target: JAK3 (Homo sapiens)
Construct: purchased Life technology
Sequence (P52333 whole entry): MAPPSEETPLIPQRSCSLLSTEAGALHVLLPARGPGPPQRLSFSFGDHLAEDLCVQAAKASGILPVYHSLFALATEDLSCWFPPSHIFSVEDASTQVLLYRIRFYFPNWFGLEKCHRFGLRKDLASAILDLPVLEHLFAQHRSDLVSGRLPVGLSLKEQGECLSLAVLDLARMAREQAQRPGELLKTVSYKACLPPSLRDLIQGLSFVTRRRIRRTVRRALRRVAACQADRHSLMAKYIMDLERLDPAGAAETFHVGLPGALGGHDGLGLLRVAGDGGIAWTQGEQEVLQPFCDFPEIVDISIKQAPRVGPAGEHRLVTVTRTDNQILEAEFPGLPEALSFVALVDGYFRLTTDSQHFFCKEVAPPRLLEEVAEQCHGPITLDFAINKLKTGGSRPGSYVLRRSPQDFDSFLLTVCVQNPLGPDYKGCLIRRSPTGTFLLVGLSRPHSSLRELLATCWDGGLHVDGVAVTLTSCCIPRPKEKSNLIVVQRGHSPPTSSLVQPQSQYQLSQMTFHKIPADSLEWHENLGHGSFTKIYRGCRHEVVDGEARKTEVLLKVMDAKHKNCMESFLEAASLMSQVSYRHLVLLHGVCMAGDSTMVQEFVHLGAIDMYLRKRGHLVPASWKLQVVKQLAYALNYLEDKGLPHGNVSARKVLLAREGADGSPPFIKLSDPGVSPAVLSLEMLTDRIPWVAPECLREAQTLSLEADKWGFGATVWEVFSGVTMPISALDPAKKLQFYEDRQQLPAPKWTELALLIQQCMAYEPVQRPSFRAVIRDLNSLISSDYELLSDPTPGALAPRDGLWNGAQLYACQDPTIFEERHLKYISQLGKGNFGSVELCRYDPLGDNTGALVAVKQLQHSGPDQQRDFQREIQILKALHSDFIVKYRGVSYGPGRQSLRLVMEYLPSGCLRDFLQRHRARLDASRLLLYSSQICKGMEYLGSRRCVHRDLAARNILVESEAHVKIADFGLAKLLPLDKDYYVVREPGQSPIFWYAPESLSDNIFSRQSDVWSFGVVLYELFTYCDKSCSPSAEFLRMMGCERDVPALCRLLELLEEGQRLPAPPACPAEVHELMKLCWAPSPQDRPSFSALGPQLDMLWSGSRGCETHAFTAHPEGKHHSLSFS
Assay: Test for in vitro activity of JAK3 kinase (LANCE Ultra ULight-JAK-1 peptide)
Type: biochemical
Settings: selectivity ratio JAK3 versus JAK2; class symbol
Protocol: Test for In Vitro Activity of Jak1, Jak2, and Jak3 Kinase Recombinant human […] of JAK1, JAK2 and JAK3 were purchased from Life technology. […] Multimode ELISA, Envison(PerkinElmer) reader was used. […] 10 ul detection reagent was added to reaction plate, wherein the final concentration of LANCE Eu-W1024 Anti-phosphotyrosine (PT66) was 2 nM, the final concentration of EDTA was […], incubated at room temperature for 60 min, with Envison reader. […]
MEASURE NAME: JAK3/JAK2 (times)

These recorded examples may help you get a feel for the data.
MOLECULE	RESULT
CS(=O)(=O)N1CC(CC#N)(n2cc(-c3cccc4nc(NC(=O)C5CC5)oc34)cn2)C1	F4 (25 < F4 ≤ 100)
N#CCC1(n2cc(-c3nccc4nc(NC(=O)C5CC5)nn34)cn2)CN(S(=O)(=O)C(F)F)C1	F4 (25 < F4 ≤ 100)
CS(=O)(=O)N1CC(CC#N)(n2cc(-c3cccc4nc(NC(=O)C5CC5)nn34)cn2)C1	F4 (25 < F4 ≤ 100)
CS(=O)(=O)N1CC(CC#N)(n2cc(-c3nccc4nc(NC(=O)C5CC5)nn34)cn2)C1	F3 (10 < F3 ≤ 25)
N#CCC1(n2cc(-c3nccc4nc(NC(=O)C5CC(O)C5)nn34)cn2)CN(S(=O)(=O)C(F)(F)F)C1 (centres unmarked)	F4 (25 < F4 ≤ 100)

IN: Look up JAK3/JAK2 (times) for this molecule: CS(=O)(=O)N1CC(CC#N)(n2cc(-c3cccc4nc(N)oc34)cn2)C1
OUT: F4 (25 < F4 ≤ 100)

IN: Queued: CS(=O)(=O)N1CC(CC#N)(n2cc(-c3nccc4nc(N)nn34)cn2)C1
OUT: F3 (10 < F3 ≤ 25)

IN: Queued: N#CCC1(n2cc(-c3nccc4nc(NC(=O)C5CNC5)nn34)cn2)CN(S(=O)(=O)C(F)(F)F)C1
OUT: F3 (10 < F3 ≤ 25)

IN: Queued: CCS(=O)(=O)N1CC(CC#N)(n2cc(-c3cccc4nc(NC(=O)C5CC5)nn34)cn2)C1
OUT: F3 (10 < F3 ≤ 25)

IN: Queued: N#CCC1(n2cc(-c3cccc4nc(NC(=O)C5CC5)nn34)cn2)CNC1
OUT: F4 (25 < F4 ≤ 100)
